target: CDK4/CyclinD1 (Homo sapiens, UniProt P11802); construct: purchased Thermofisher PR8064A; assay: Assay for inhibition of CDK4/CyclinD1 (Caliper microfluidic kinase assay); format: biochemical; conditions: CDK4/CyclinD1, 200 μM ATP
Sequence (P11802 whole entry): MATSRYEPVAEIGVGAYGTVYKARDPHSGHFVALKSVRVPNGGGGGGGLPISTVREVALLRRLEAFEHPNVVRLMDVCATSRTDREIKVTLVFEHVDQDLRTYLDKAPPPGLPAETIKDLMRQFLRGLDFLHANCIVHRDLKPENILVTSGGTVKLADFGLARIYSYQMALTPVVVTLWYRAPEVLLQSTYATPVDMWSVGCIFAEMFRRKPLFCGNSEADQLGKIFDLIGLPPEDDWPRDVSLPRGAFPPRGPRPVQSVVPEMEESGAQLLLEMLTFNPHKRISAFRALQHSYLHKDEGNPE
Sequence (P24385 whole entry partner): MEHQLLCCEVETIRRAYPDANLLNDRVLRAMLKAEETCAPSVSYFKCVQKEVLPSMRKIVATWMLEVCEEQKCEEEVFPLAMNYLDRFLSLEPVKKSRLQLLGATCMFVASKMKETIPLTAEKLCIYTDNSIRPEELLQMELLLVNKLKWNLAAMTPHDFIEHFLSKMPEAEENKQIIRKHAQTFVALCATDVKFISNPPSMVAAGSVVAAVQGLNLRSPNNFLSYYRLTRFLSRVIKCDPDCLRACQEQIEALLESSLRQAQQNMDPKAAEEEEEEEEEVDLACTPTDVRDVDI
pIC50: −log10 of the molar value.
READOUT KIND: pIC50

// worked examples, pIC50 included
In [3]: df
Out[3]:
                                   compound                             target_system  readout_kind  reported_value
0  CC(C)c1cnn2ccc(-c3ccnc(Nc4ccn(CC5CCN(C(=O)CC#N)CC5)n4)n3)cc12  CDK4/CyclinD1 (Homo sapiens, UniProt P11802)         pIC50    7.00 to 8.00
1  CCN1CCN(c2ccc(Nc3nccc(-c4cc5c(ncn5C(C)C)c(F)n4)n3)nc2)CC1  CDK4/CyclinD1 (Homo sapiens, UniProt P11802)         pIC50          > 8.00

Now let's try a different one.
Request: Sample `CC(C)c1cnn2ccc(-c3nc(Nc4ccc(N5CCCNCC5=O)cn4)ncc3F)cc12` — what was its pIC50?
Result: > 8.00
